Test system: UACC-62 melanoma
experimental.protocol: NCI-60 one-dose screen, 48 h (100 = growth as untreated, 0 = no growth, -100 = all killed)
test.context: 10 µM unless noted
About 83,000 compounds went through this panel and 20% of them were active in at least one assay; those are over-represented in the sample as a whole.
Items are presented alongside their recorded growth.

| molecule | unit.string | growth |
| --- | --- | --- |
| Cn1c(=O)c(F)c(Nc2ccc(I)cc2F)c2c(=O)n(C[C@@H](O)CO)cnc21 | % | 0.259 |
| CCOc1cccc(/C=N/NC(=O)c2ccccc2Nc2ccnc(C(F)(F)F)c2)c1O | % | 3.69 |
| COc1ccc2c(CCc3ccc(Cl)cc3)c3[n+](cc2c1OC)CCc1cc2c(cc1-3)OCO2 | % | 30.1 |
| O=c1[nH]c(N2CCOCC2)nc2scc(-c3ccccc3)c12 | % | 99.2 |
| CN(c1ncccc1CNc1nc(Nc2ccc3c(c2)CC(=O)N3)ncc1C(F)(F)F)S(C)(=O)=O | % | -64.6 |
| CN1CCN(CC(=O)Nc2ccc(-c3nc4ccccc4s3)cc2)CC1 | % | -35.8 |
| Cc1cc(N(CCNc2ccnc3cc(Cl)ccc23)Cc2ccc3c(c2)OCO3)nc(N2CCCC2)n1 | % | 18.2 |
| CC(C)(C)c1cnc(CSc2cnc(NC(=O)C3CCNCC3)s2)o1 | % | -49.7 |
| O=C(Nc1ccc(C2=NCCCN2)cc1)c1ccc(C(=O)Nc2ccc(C3=NCCCN3)cc2)nc1 | % | 99.5 |
| O=C(CNc1nnc(-c2ccc(Cl)cc2)o1)Nc1ccc(-c2nc3ccccc3s2)cc1 | % | 86.1 |
| O=C(COc1cccc(/C=C2\Cc3ccc(Cl)cc3C2=O)c1)Nc1nccs1 | % | 84.2 |
| CCc1cnn2c(NCc3ccc[n+]([O-])c3)cc(N3CCCC[C@H]3CCO)nc12 | % | -70.7 |
| O=C(Nc1cnn2ccc(N3CCC[C@@H]3c3cc(F)ccc3F)nc12)N1CC[C@H](O)C1 | % | 99 |
| COc1cc(OC)c(/C=C/S(=O)(=O)Cc2ccc(OC)c(NCC(=O)O)c2)c(OC)c1 | % | 37.4 |
| COc1ccc(C2CC(=O)c3c(O)c(OC)c(OC)c(OC)c3O2)c(O)c1 (centres undefined) | % | 37 |
| COC(=O)C1CCc2sc3ncnc(Nc4cn[nH]c4C(=O)Nc4ccc(CN5CCN(C)CC5)cc4)c3c21 (centres undefined) | % | 58.8 |
| COC(=O)[C@]12CC[C@@H](C)[C@H](C)[C@@H]1C1=CC[C@@H]3[C@@]4(C)C(c5cnco5)=C[C@@](C)(CO)C4=CC[C@@]3(C)[C@]1(C)CC2 | % | 65.3 |
| CNc1ncc2cc(-c3cc(NC(=O)NCCC(C)(C)C)c(F)cc3C)c(C)nc2n1 | % | -7.93 |
| COCc1c(-c2ccc(NC(=O)Nc3cc(C(F)(F)F)ccc3F)c(F)c2)c2c(N)ncnn2c1CN1CCOCC1 | % | -38.8 |

---

Tested on: SK-MEL-5 melanoma
experimental.protocol: NCI-60 one-dose screen, 48 h
test.context: 10 µM unless noted
About 83,000 compounds went through this panel and 20% of them were active in at least one assay; those are over-represented in the sample as a whole. Active and inactive are the calls of the source. How the source made its calls: active means growth percent below 10; inactive means the rest.
Outcome codes: t (active), f (inactive)

| molecule | class |
| --- | --- |
| O=C1CC(c2ccc(Cl)cc2)c2ncn(-c3cccc(Cl)c3)c2N1 (stereo not drawn) | f |
| C#Cc1cccc(Nc2ncnc3cc(OCCOC)c(OCCOC)cc23)c1 | f |
| CC(=O)C1CC(C)CCC1C(C)C (stereo not drawn) | f |
| COc1cc(-c2cc(-c3ccc(Nc4ccnc5cc(Cl)ccc45)cc3)nc(N3CCOCC3)n2)cc(OC)c1OC | f |
| c1ccc2c(c1)CCN(NCCN1CCCC1)C2 | f |
| CCCCCCCC(=O)SCC/C=C/[C@@H]1CC(=O)NCc2cccc(n2)C2=N[C@@](C)(CS2)C(=O)N[C@@H](C(C)C)C(=O)N1 | f |
| Cc1ccc(NC(=O)Nc2ccc(Nc3ncnc4sc5c(c34)CCOC5)cc2)cc1Cl | f |
| CO[C@H](C(=O)N[C@@H](CCCCNC(=O)OCc1ccccc1)C(=O)OC(C)(C)C)[C@@H]1Cc2cc3cc(OC4CC(OC5CC(O)C(O)C(C)O5)C(O)C(C)O4)c(C)c(O)c3c(O)c2C(=O)[C@H]1OC1CC(OC2CC(OC3CC(C)(O)C(O)C(C)O3)C(O)C(C)O2)C(O)C(C)O1 (stereo partly drawn) | t |

Numbers sourced from PubChem BioAssay (NCI).
